Measured Activity 250 ppm of individual entries
tested on: Plasmopara viticola; test: Fungicidal (preventive) activity against Peronospora of vines, leaf spray; type: in vivo, Plasmopara viticola on vine (cultivar Dolcetto); details: 7-day preventive activity; 250 ppm; scale 0 (completely infected plant) to 100 (healthy plant)
Keep the answer to the number alone.

Known results for compounds:
In plain terms, CCCCCCCCCCCC(=O)NCCC[N+]1(C)CCCC1C(=O)[O-] (centres unmarked) [Compound 25, laurylamidopropyl[L]prolinebetaine] has a documented Activity 250 ppm of 100

For this compound ( CCCCCCCCCCCC[N+](C)(C)CC(O)CS(=O)(=O)[O-] (centres unmarked) [Compound 5, Laurylhydroxysultaine] ), measured Activity 250 ppm is 99

Note to self: Activity 250 ppm recorded for CCCCCCCCCCCC(=O)NCCC[N+](C)(C)CC(=O)[O-] was 100

***
For record CCCCCCCCCCCC(=O)NCCC[N+](C)(C)C(CC(=O)[O-])c1ccccc1 (centres unmarked) the listed Activity 250 ppm is 99

Noted for CCCCCCCCCCCC(=O)NCCC[N+](C)(C)CCC(=O)[O-] : its Activity 250 ppm reads 90

###

system: Plasmopara viticola; experiment: Fungicidal (preventive) activity against Peronospora of vines, leaf spray; assay type: in vivo, Plasmopara viticola on vine (cultivar Dolcetto); conditions: 7-day preventive activity; 125 ppm; scale 0 to 100 (healthy plant)
Let's look at some compounds and their measured Activity 125 ppm.
API note: the answer field is a bare number with no unit suffix.

Entry CCCCCCCCCCCC(=O)NCCC[N+](C)(C)C(C(=O)[O-])C(C)C (centres unmarked) [Compound 24, laurylamidopropyl[L]valinebetaine] , Activity 125 ppm reported as 88

CCCCCCCCCCCC(=O)NCCC[N+]1(C)CCCC1C(=O)[O-] (centres unmarked) [Compound 25, laurylamidopropyl[L]prolinebetaine] yielded Activity 125 ppm of 95

Activity 125 ppm for CCCCCCCCCCCC(=O)NCCC[N+](C)(C)CC(=O)[O-] is 95

// field: Activity 125 ppm; key: CCCCCCCCCCCC(=O)NCCC[N+](C)(C)C(CC(=O)[O-])c1ccc(Cl)cc1 (centres unmarked) ; value = 90

Value of measured Activity 125 ppm for the entry CCCCCCCCCCCC(=O)NCCC[N+](C)(C)CCC(=O)[O-] : 85

// Activity 125 ppm lookup, compound = CCCCCCCCCCCC[N+](C)(C)CC(O)CS(=O)(=O)[O-] (centres unmarked) [Compound 5, Laurylhydroxysultaine] , result: 85

Further cases:
get_value(item= CCCCCCCCCCCC(=O)NCCC[N+](C)(C)C(C)C(=O)[O-] (centres unmarked) [Compound 26, laurylamidopropyl[L]alaninebetaine] , readout=Activity 125 ppm) returns 90

response.value for CCCCCCCCCCCC(=O)NCCC[N+](C)(C)C(CC(=O)[O-])c1ccccc1 (centres unmarked) (field: Activity 125 ppm) = 90

###

test system: Plasmopara viticola; assay: Fungicidal (preventive) activity against Peronospora of vines, leaf spray; type: in vivo, Plasmopara viticola on vine (cultivar Dolcetto); conditions: 7-day preventive activity; 250 ppm; scale 0 (completely infected plant) to 100 (healthy plant)
Listed below: Activity 250 ppm values for each entry.
Answer with the value's number alone.

Solved cases below.
Case CCCCCCCCCCCC(=O)NCCC[N+](C)(C)C(C(=O)[O-])C(C)C (stereo not drawn) [Compound 24, laurylamidopropyl[L]valinebetaine] , Plasmopara viticola, Activity 250 ppm recorded as 99

Log: Plasmopara viticola, molecule CCCCCCCCCCCC(=O)NCCC[N+](C)(C)C(C)C(=O)[O-] (stereo not drawn) [Compound 26, laurylamidopropyl[L]alaninebetaine] , Activity 250 ppm = 95

In the following, a different molecule is considered.
Entry CCCCCCCCCCCC(=O)NCCC[N+](C)(C)C(CC(=O)[O-])c1ccc(Cl)cc1 (stereo not drawn) , tested on Plasmopara viticola, has a reported Activity 250 ppm of 95
